- Species on record: Rattus norvegicus
- TEST_NAME: Open TG-GATES - Regimen: Daily Repeat
- Assay type: toxicity, organism-based, Sprague-Dawley
- Parameters: regimen Daily Repeat, gender Male, age 6 weeks
- CONDITION_CONTEXT: in vivo, po, 0 mg/kg, […], tissue Plasma, route gavage, dose level Control, time 14 day
Let's look at some molecules and their measured PL.
A number alone suffices; assume mg/dL.

The molecule listed as C#C[C@]1(O)CC[C@H]2[C@@H]3CCC4=Cc5oncc5C[C@]4(C)[C@H]3CC[C@@]21C has a reported PL of 158

The molecule listed as CCOC(=O)[C@H](CCc1ccccc1)N[C@@H](C)C(=O)N1CCC[C@H]1C(=O)O has a reported PL of 162.2

The molecule listed as CC(=O)Nc1nnc(S(N)(=O)=O)s1 [ACETAZOLAMIDE] has a reported PL of 142.4

The molecule listed as Clc1c(Cl)c(Cl)c(Cl)c(Cl)c1Cl has a reported PL of 155.6

The molecule listed as CN(C)[C@@H]1C(O)=C(C(N)=O)C(=O)[C@@]2(O)C(O)=C3C(=O)c4c(O)cccc4[C@@](C)(O)[C@H]3C[C@@H]12 has a reported PL of 154.6

* * *

- Species on record: Rattus norvegicus
- TEST_NAME: Open TG-GATES - Regimen: Daily Repeat
- Format: toxicity, organism-based, Sprague-Dawley
- Design: regimen Daily Repeat, gender Male, age 6 weeks
- CONDITION_CONTEXT: in vivo, po, 0 mg/kg, […], tissue Plasma, route gavage, dose level Control, time 14 day
ENDPOINT: TC (mg/dL)
A number alone suffices; assume mg/dL.

- COMPOUND: "C1CCC(C(CC2CCCCN2)C2CCCCC2)CC1 (stereo not given) [PERHEXILINE]"
  TC (mg/dL): 59
- COMPOUND: "Clc1c(Cl)c(Cl)c(Cl)c(Cl)c1Cl [PERCHLOROBENZENE]"
  TC (mg/dL): 79

The compound listed as O=C(O)Cc1ccccc1Nc1c(Cl)cccc1Cl [DICLOFENAC] has a reported TC of 64.2

The compound listed as CC(=O)Nc1nnc(S(N)(=O)=O)s1 [ACETAZOLAMIDE] has a reported TC of 67

The compound listed as CN(C)[C@@H]1C(O)=C(C(N)=O)C(=O)[C@@]2(O)C(O)=C3C(=O)c4c(O)cccc4[C@@](C)(O)[C@H]3C[C@@H]12 [TETRACYCLINE] has a reported TC of 72.2

The compound listed as CCOC(=O)[C@H](CCc1ccccc1)N[C@@H](C)C(=O)N1CCC[C@H]1C(=O)O has a reported TC of 77

* * *

- Species on record: Rattus norvegicus
- TEST_NAME: Open TG-GATES - Regimen: Daily Repeat
- Format: toxicity, organism-based, Sprague-Dawley
- Parameters: regimen Daily Repeat, gender Male, age 6 weeks
- CONDITION_CONTEXT: in vivo, po, 0 mg/kg, 72 h, tissue Blood, route gavage, dose level Control, time 3 day
Let's look at some molecules and their measured MCV.
A number alone suffices; assume fL.

- MOLECULE: "CN(C)[C@@H]1C(O)=C(C(N)=O)C(=O)[C@@]2(O)C(O)=C3C(=O)c4c(O)cccc4[C@@](C)(O)[C@H]3C[C@@H]12"
  UNIT_TAG: "fL"
  MCV: 66
- MOLECULE: "Cc1cccc(Nc2ccccc2C(=O)O)c1C"
  UNIT_TAG: "fL"
  MCV: 62.4
- MOLECULE: "CCOC(=O)[C@H](CCc1ccccc1)N[C@@H](C)C(=O)N1CCC[C@H]1C(=O)O"
  UNIT_TAG: "fL"
  MCV: 63.9
- MOLECULE: "C#C[C@]1(O)CC[C@H]2[C@@H]3CCC4=Cc5oncc5C[C@]4(C)[C@H]3CC[C@@]21C"
  UNIT_TAG: "fL"
  MCV: 63.8

Now take the following molecule into account.
The molecule listed as CC(CN1c2ccccc2Sc2ccccc21)N(C)C (stereo not given) has a reported MCV of 61.9

* * *

- Organism: Rattus norvegicus
- TEST_NAME: Open TG-GATES - Regimen: Single
- Type: toxicity, organism-based, Sprague-Dawley
- Set-up: regimen Single, gender Male, age 6 weeks
- CONDITION_CONTEXT: in vivo, po, 0 mg/kg, 9 h, tissue Blood, route gavage, dose level Control
Let's look at some compounds and their measured Eos.

Example entries and their recorded answers appear below.
- COMPOUND: "CN(C)[C@@H]1C(O)=C(C(N)=O)C(=O)[C@@]2(O)C(O)=C3C(=O)c4c(O)cccc4[C@@](C)(O)[C@H]3C[C@@H]12"
  Eos: "0.6%"
- COMPOUND: "Clc1c(Cl)c(Cl)c(Cl)c(Cl)c1Cl"
  Eos: "1%"
- COMPOUND: "C#C[C@]1(O)CC[C@H]2[C@@H]3CCC4=Cc5oncc5C[C@]4(C)[C@H]3CC[C@@]21C"
  Eos: "0.2%"
- COMPOUND: "CN1C(C(=O)Nc2ccccn2)=C(O)c2sc(Cl)cc2S1(=O)=O"
  Eos: "0.8%"
- COMPOUND: "Cc1cccc(Nc2ccccc2C(=O)O)c1C"
  Eos: "1%"
- COMPOUND: "CC(=O)Nc1nnc(S(N)(=O)=O)s1 [ACETAZOLAMIDE]"
  Eos: "0.6%"
- COMPOUND: "CCOC(=O)[C@H](CCc1ccccc1)N[C@@H](C)C(=O)N1CCC[C@H]1C(=O)O"
  Eos: "1.2%"
- COMPOUND: "C1CCC(C(CC2CCCCN2)C2CCCCC2)CC1 (stereo not given)"
  Eos: "0.6%"
- COMPOUND: "COc1cc([C@@H]2c3cc4c(cc3[C@@H](O[C@@H]3O[C@@H]5CO[C@@H](C)O[C@H]5[C@H](O)[C@H]3O)[C@H]3COC(=O)[C@H]23)OCO4)cc(OC)c1O [ETOPOSIDE]"
  Eos: "1.2%"

Now take the following compound into account.
The compound listed as CC(CN1c2ccccc2Sc2ccccc21)N(C)C (stereo not given) has a reported Eos of 0.8%

* * *

Let's look at some compounds and their measured ALP.
- Species: Rattus norvegicus
- TEST_NAME: Open TG-GATES - Regimen: Daily Repeat
- Format: toxicity, organism-based, Sprague-Dawley
- Set-up: regimen Daily Repeat, gender Male, age 6 weeks
- CONDITION_CONTEXT: in vivo, po, 0 mg/kg, 72 h, tissue Plasma, route gavage, dose level Control, time 3 day
A number alone suffices; assume IU/L.

Example entries and their recorded answers appear below.
- COMPOUND: "CN(C)[C@@H]1C(O)=C(C(N)=O)C(=O)[C@@]2(O)C(O)=C3C(=O)c4c(O)cccc4[C@@](C)(O)[C@H]3C[C@@H]12"
  ALP, IU/L: 921.6
- COMPOUND: "CN1C(C(=O)Nc2ccccn2)=C(O)c2sc(Cl)cc2S1(=O)=O"
  ALP, IU/L: 907.8

The compound listed as Cc1cccc(Nc2ccccc2C(=O)O)c1C has a reported ALP of 1029.8

The compound listed as C1CCC(C(CC2CCCCN2)C2CCCCC2)CC1 (stereo not given) has a reported ALP of 1695

* * *

- Species: Rattus norvegicus
- TEST_NAME: Open TG-GATES - Regimen: Daily Repeat
- Assay type: toxicity, organism-based, Sprague-Dawley
- Set-up: regimen Daily Repeat, gender Male, age 6 weeks
- CONDITION_CONTEXT: in vivo, po, 0 mg/kg, […], tissue Plasma, route gavage, dose level Control, time 7 day
ENDPOINT: PL
Remember to quote the unit after the number.

The compound listed as C#C[C@]1(O)CC[C@H]2[C@@H]3CCC4=Cc5oncc5C[C@]4(C)[C@H]3CC[C@@]21C has a reported PL of 157 mg/dL

The compound listed as CCOC(=O)[C@H](CCc1ccccc1)N[C@@H](C)C(=O)N1CCC[C@H]1C(=O)O has a reported PL of 157.4 mg/dL

The compound listed as C1CCC(C(CC2CCCCN2)C2CCCCC2)CC1 (centres undefined) has a reported PL of 152.6 mg/dL

The compound listed as CN1C(C(=O)Nc2ccccn2)=C(O)c2sc(Cl)cc2S1(=O)=O has a reported PL of 150 mg/dL

The compound listed as Clc1c(Cl)c(Cl)c(Cl)c(Cl)c1Cl has a reported PL of 148.6 mg/dL

* * *

Let's look at some compounds and their measured Na.
- Species on record: Rattus norvegicus
- TEST_NAME: Open TG-GATES - Regimen: Single
- Type: toxicity, organism-based, Sprague-Dawley
- Design: regimen Single, gender Male, age 6 weeks
- CONDITION_CONTEXT: in vivo, po, 0 mg/kg, 6 h, tissue Plasma, route gavage, dose level Control
A number alone suffices; assume meq/L.

Example entries and their recorded answers appear below.
- COMPOUND: "CC(=O)Nc1nnc(S(N)(=O)=O)s1 [ACETAZOLAMIDE]"
  UNIT_TAG: "meq/L"
  RECORDED_NUMBER: 141
- COMPOUND: "C1CCC(C(CC2CCCCN2)C2CCCCC2)CC1 (stereo not given)"
  UNIT_TAG: "meq/L"
  RECORDED_NUMBER: 140.4

Now take the following compound into account.
The compound listed as CC(CN1c2ccccc2Sc2ccccc21)N(C)C (stereo not given) has a reported Na of 141.2
